biological target: luciferase (firefly) (Photinus pyralis, UniProt P08659); assay: Luminescence characteristics with firefly luciferase (Example 3); type: biochemical; details: versus luciferin
Sequence (P08659 whole entry, species assumed): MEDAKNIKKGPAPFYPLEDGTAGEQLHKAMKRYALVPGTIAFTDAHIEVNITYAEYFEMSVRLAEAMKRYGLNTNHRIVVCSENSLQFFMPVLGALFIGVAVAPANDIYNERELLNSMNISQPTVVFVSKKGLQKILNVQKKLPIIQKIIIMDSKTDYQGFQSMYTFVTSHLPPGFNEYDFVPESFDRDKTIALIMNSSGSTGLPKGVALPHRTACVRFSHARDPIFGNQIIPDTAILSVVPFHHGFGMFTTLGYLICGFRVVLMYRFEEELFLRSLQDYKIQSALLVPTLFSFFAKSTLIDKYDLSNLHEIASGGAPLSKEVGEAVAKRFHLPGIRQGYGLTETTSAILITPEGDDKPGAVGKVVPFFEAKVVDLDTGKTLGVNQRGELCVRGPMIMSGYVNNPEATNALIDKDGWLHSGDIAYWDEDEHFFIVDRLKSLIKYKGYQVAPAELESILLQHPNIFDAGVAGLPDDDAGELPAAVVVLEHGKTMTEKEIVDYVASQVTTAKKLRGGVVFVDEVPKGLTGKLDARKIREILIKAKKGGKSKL
The label depends only on peak luminescence wavelength shift to longer wavelength side compared with luciferin: label 1 if it is at least 50 nm, label 0 if it is smaller.

Solved cases below.
>  <Compound>
CN(C)c1ccc2nc(C3=NC(C(=O)O)CS3)sc2c1 (stereo not drawn)

>  <Measurement Target>
luciferase (firefly) (Photinus pyralis, UniProt P08659)

>  <Classification>
label 1

$$$$
>  <Compound>
O=C(O)C1CSC(c2nc3ccc(NCc4ccccc4)cc3s2)=N1 (stereo not drawn)

>  <Measurement Target>
luciferase (firefly) (Photinus pyralis, UniProt P08659)

>  <Classification>
label 0

$$$$
>  <Compound>
O=C(O)C1CSC(c2nc3ccc(NCCc4ccccc4)cc3s2)=N1 (stereo not drawn)

>  <Measurement Target>
luciferase (firefly) (Photinus pyralis, UniProt P08659)

>  <Classification>
label 0

$$$$
>  <Compound>
O=C(O)C1CSC(c2nc3ccc(NCCCc4ccccc4)cc3s2)=N1 (stereo not drawn)

>  <Measurement Target>
luciferase (firefly) (Photinus pyralis, UniProt P08659)

>  <Classification>
label 0

$$$$

Now examine the next entry.
Given the entry Nc1ccc2nc(C3=N[C@@H](C(=O)O)CS3)sc2c1 [aminoluciferin, reference compound] , answer whether its peak luminescence wavelength shift to longer wavelength side compared with luciferin meets or surpasses 50 nm.
label 0

---

Can you tell me λmax(nm) for the items I'm about to list?
target: luciferase (firefly) (Photinus pyralis); assay: Luminescence characteristics with firefly luciferase (Example 3); type: biochemical; settings: luminescence peak; 12 μmol/L substrate, 20 μg/mL luciferase, HEPES pH 7.7, ATP, Mg, CoA
One number for each entry, in nm.

Here's what some known entries look like.
>  <Molecule>
Nc1ccc2nc(C3=N[C@@H](C(=O)O)CS3)sc2c1 [aminoluciferin, reference compound]

>  <λmax(nm)>
609

$$$$
>  <Molecule>
O=C(O)C1CSC(c2nc3ccc(NCc4ccccc4)cc3s2)=N1 (stereo not drawn)

>  <λmax(nm)>
623

$$$$

Report λmax(nm) for each item below.
1. CN(C)c1ccc2nc(C3=NC(C(=O)O)CS3)sc2c1 (stereo not drawn)
2. CNc1ccc2nc(C3=NC(C(=O)O)CS3)sc2c1 (stereo not drawn)

1. 641
2. 624

Report λmax(nm) for each item below.
1. O=C(O)C1CSC(c2nc3ccc(NCCc4ccccc4)cc3s2)=N1 (stereo not drawn)
2. O=C(O)C1CSC(c2nc3ccc(NCCCc4ccccc4)cc3s2)=N1 (stereo not drawn)

1: 611; 2: 611

---

biological target: luciferase (firefly) (Photinus pyralis); test: Luminescence characteristics with firefly luciferase (Example 3); type: biochemical; settings: luminescence; 12 μmol/L substrate, 20 μg/mL luciferase, HEPES pH 7.7
Measured Parameter: initial intensity
Give bare numbers.

Here's what some known entries look like.
>  <Compound>
O=C(O)C1CSC(c2nc3ccc(NCc4ccccc4)cc3s2)=N1 (centres unmarked)

>  <initial intensity>
106

$$$$
>  <Compound>
O=C(O)C1CSC(c2nc3ccc(NCCCc4ccccc4)cc3s2)=N1 (centres unmarked)

>  <initial intensity>
980

$$$$
>  <Compound>
Nc1ccc2nc(C3=N[C@@H](C(=O)O)CS3)sc2c1 [aminoluciferin, reference compound]

>  <initial intensity>
2044

$$$$
>  <Compound>
CN(C)c1ccc2nc(C3=NC(C(=O)O)CS3)sc2c1 (centres unmarked)

>  <initial intensity>
901

$$$$

Consider the compound CNc1ccc2nc(C3=NC(C(=O)O)CS3)sc2c1 (centres unmarked) and give its measured initial intensity.
1360
